Is compound selective in assay? Pf GC-ATP active? by entry:
Tested on: P. falciparum late stage (stages IV-V) gametocytes
procedureSummary: P. falciparum late stage gametocyte ATP depletion assay (Pf GC-ATP)
conditionDetails: 1: YES; 0: NO
testReadout: Is compound selective in assay? Pf GC-ATP active?

1) CN1CCN(CCCN(Cc2cccc(-c3ccc(CNC4CCCC4)cc3)c2)C(=O)/C=C/c2ccccc2)CC1.O=C(O)C(F)(F)F [TCMDC-140544] : 0 (0: NO)
2) Cl.Cl.c1ccc2c(NCCCCCCNc3c4ccccc4nc4ccccc34)c3ccccc3nc2c1 [TCMDC-124285] : 1 (1: YES)
3) N=C(/N=C(/NCCCCCCN/C(=N/C(=N)NCc1ccc(Cl)c(Cl)c1)N1CCCCC1)N1CCCCC1)NCc1ccc(Cl)c(Cl)c1 [TCMDC-131816] : 1 (1: YES)
4) S=C(NN=Cc1ccccn1)NC1CC2C=CC1C2 (stereo not shown) [TCMDC-125752] : 0 (0: NO)
